We begin with a simple list: items and their reported inhibition at 15 µM.
system: GPR84 (Homo sapiens (Human))
assay.details: Gai biosensor BRET assay (GPR84-mediated activation of Gai, antagonist mode against agonist ZQ-16)
Type: cell-based
test.parameters: compound tested at 15 μM (concentration code F)
experimental.readout: inhibition at 15 µM

O=C(CC1CCOCC1)N1CCc2cc(C#CC3CC3)ccc2C1 [Compound I-181]; 25 to 50%
Cc1cc(OCC2COCCO2)nc(OCc2ccc(C#CC3CC3)cc2)n1 (centres unmarked) [Compound I-85]; < 25%
COc1ccc(OCC2COCCO2)cc1Cc1ccc(C#CC2CC2)cc1 (centres unmarked) [Compound I-210]; < 25%
COc1cc(OCC2COCCO2)cc(-c2cccc(-c3ccc(C)nc3)c2)n1 (centres unmarked) [Compound I-66]; < 25%
FC(F)(F)COc1ccc(-c2cc(OCC3COCCO3)cc(C3CO3)c2)cc1 (centres unmarked) [Compound I-164]; < 25%

* * *

We begin with a simple list: items and their reported inhibition at 25 µM.
system: GPR84 (Homo sapiens (Human))
assay.details: Gai biosensor BRET assay (GPR84-mediated activation of Gai, antagonist mode against agonist ZQ-16)
Format: cell-based
test.parameters: compound tested at 25 μM (concentration code G)
experimental.readout: inhibition at 25 µM

Cc1cc(C#CC2CC2)ccc1-c1cc(OCC2COCCO2)n(C)c(=O)n1 (stereo not drawn) [Compound I-126]; < 25%
C(#CC1CC1)c1ccc(-c2ccnc(OCC3CCCCO3)n2)cc1 (stereo not drawn) [Compound I-128]; < 25%
COc1nc(OCC2COCCO2)cc(-c2ccc(C#CC3CC3)cc2C)n1 (stereo not drawn) [Compound I-103]; < 25%
O=c1nc(OCC2COCCO2)ccn1Cc1cc(OCC(F)(F)F)ccc1Br (stereo not drawn) [Compound I-77]; < 25%
Cc1ccc(-c2ccc3c(c2)CN(C(=O)CC2CCCCO2)C3)cn1 (stereo not drawn) [Compound I-197]; < 25%
O=c1oc2ccc(-c3ccc(C#CC4CC4)cc3)cc2n1CC1COCCO1 (stereo not drawn) [Compound I-169]; < 25%
Cc1cc(OCC2COCCO2)cc(=O)n1C(C)c1ccc(C#CC2CC2)cc1 (stereo not drawn) [Compound I-1]; > 75%
COc1cc(OCC2COCCO2)cc(-c2ccc(-c3ccc(C)nc3)cc2C)n1 (stereo not drawn) [Compound I-36]; 25 to 50%
Cn1c(-c2ccc(OCC(F)(F)F)cc2)cc(OCC2COCCO2)nc1=O (stereo not drawn) [Compound I-62]; < 25%
FC(F)(F)COc1cccc(-c2cccc(OCC3COCCO3)n2)c1 (stereo not drawn) [Compound I-111]; < 25%
COc1cc(OCC2COCCO2)nc(-c2ccc(OCC(F)(F)F)cc2)c1OC (stereo not drawn) [Compound I-94]; < 25%
COc1nc(OCC2COCCO2)cc(-c2ccc(C#CC3CC3)cc2)n1 (stereo not drawn) [Compound I-29]; < 25%
COc1cnc(OCC2COCCO2)c(-c2ccc(OCC(F)(F)F)cc2)c1OC (stereo not drawn) [Compound I-131]; < 25%
FC(F)(F)COc1ccc(-c2cncc(OCC3COCCO3)c2)cc1 (stereo not drawn) [Compound I-53]; 25 to 50%
Cc1cc(OCC(F)(F)F)ccc1-c1cccc(OCC2COCCO2)n1 (stereo not drawn) [Compound I-33]; 25 to 50%
Cc1cc(C#CC2CC2)ccc1-c1cncc(OCC2CCCCO2)c1 (stereo not drawn) [Compound I-24]; 50 to 75%
COc1cc(OC[C@H]2COCCO2)nc(-c2ccc(OCC(F)(F)F)cc2)c1C [Compound I-39]; 25 to 50%
FC(F)(F)COc1ccc(-c2c(OCC3COCCO3)ncc3c2OCCO3)cc1 (stereo not drawn) [Compound I-159]; < 25%

* * *

system: GPR84 (Homo sapiens (Human), UniProt Q9NQS5)
Sequence (Q9NQS5 whole entry): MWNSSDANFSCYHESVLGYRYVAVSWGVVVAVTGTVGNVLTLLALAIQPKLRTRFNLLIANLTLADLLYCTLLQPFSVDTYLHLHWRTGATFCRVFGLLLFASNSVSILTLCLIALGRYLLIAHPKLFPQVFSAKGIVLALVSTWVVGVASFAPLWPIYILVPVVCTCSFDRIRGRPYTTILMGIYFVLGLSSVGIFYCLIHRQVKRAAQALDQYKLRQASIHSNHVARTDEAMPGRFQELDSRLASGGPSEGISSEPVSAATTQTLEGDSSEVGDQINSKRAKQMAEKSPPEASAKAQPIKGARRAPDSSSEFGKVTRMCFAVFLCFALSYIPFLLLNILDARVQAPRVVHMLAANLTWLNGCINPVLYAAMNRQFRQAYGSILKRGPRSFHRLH
assay.details: Gai biosensor BRET assay (GPR84-mediated activation of Gai, antagonist mode against agonist ZQ-16)
Format: cell-based
test.parameters: compound tested at 25 μM (concentration code G)
experimental.readout: inhibition at 25 µM

COc1cc(OCC2COCCO2)nc(-c2ccc(OCc3ccccn3)cc2C)n1 (stereo not drawn); < 25%
COc1nc(OCC2COCCO2)cc(-c2ccc(OCC(F)(F)F)cc2)n1 (stereo not drawn); < 25%
COc1cc(NC(=O)C2CCCCO2)cc(-c2ccc(C#CC3CC3)cc2)n1 (stereo not drawn); < 25%
COc1cc(OCC2COCCO2)cc(-c2c(C)cc(OCc3ccccc3)cc2C)n1 (stereo not drawn); < 25%
O=c1nc(OCC2COCCO2)cc2n1CCOc1cc(Cl)ccc1-2 (stereo not drawn); 25 to 50%
Clc1cc(OCC2COCCO2)cc(-c2ccc(C#CCNc3ccccc3)cc2)n1 (stereo not drawn); < 25%
Cc1cc(OCC2COCCO2)cc(=O)n1Cc1cccc(C#CC2CC2)c1 (stereo not drawn); > 75%
CCn1c(-c2ccc(C#CC3CC3)cc2)cc(OCC2COCCO2)cc1=O (stereo not drawn); 50 to 75%
O=c1nc(OCC2COCCO2)cc(-c2ccc(OCC(F)(F)F)cn2)[nH]1 (stereo not drawn); < 25%
Cc1ccc(-c2ccc3c(c2)CCN(C(=O)CC2CCCCO2)C3)cn1 (stereo not drawn); 25 to 50%
COc1cc(OCC2COCCO2)cc(-c2ccc(-c3ccc(C)nc3)cc2)n1 (stereo not drawn); 25 to 50%
Cc1cc(OCC2COCCO2)nc(=O)n1Cc1ccc(C#CC2CC2)cc1 (stereo not drawn); 25 to 50%
COc1cc(OCC2COCCO2)cc(-c2ccc(C#CCNc3ccccc3)cc2)n1 (stereo not drawn); < 25%
CSc1nc(OCC2COCCO2)cc(-c2cnc(OCC(F)(F)F)cc2C)n1 (stereo not drawn); < 25%
COc1cc(OCC2COCCO2)nc(-c2ccc(OCC(F)(F)F)cc2C)c1C (stereo not drawn); < 25%
O=C(CC1CCOCC1)N1Cc2ccc(C#CC3CC3)cc2C1; 50 to 75%
Cc1nc(OCC2COCCO2)cc(=O)n1Cc1ccc(C#CC2CC2)cc1 (stereo not drawn); 25 to 50%
O=C(CC1CCCCO1)N1Cc2ccc(C#CC3CC3)cc2C1 (stereo not drawn); 25 to 50%

* * *

system: GPR84 (Homo sapiens (Human))
assay.details: Gai biosensor BRET assay (GPR84-mediated activation of Gai, antagonist mode against agonist ZQ-16)
Format: cell-based
test.parameters: compound tested at 2 μM (concentration code A)
experimental.readout: inhibition at 2 µM

Cc1cc(OCc2cccnc2)cc(=O)n1[C@H](C)c1ccc(C#CC2CC2)cc1; > 75%
Cc1cc(OCc2nccn2C)cc(=O)n1C(C)c1ccc(C#CC2CC2)c(F)c1 (stereo not drawn); > 75%
Cc1cc(OCc2ncccn2)cc(=O)n1[C@H](C)c1cccc(C#CC2CC2)c1; < 25%
Cc1cc(OCc2cnccn2)cc(=O)n1[C@H](C)c1ccc(C#CC2CC2)cc1; > 75%
Cc1cc(OCc2ncccc2Cl)cc(=O)n1[C@H](C)c1ccc(C#CC2CC2)cc1; > 75%
Cc1cc(OCc2cccnn2)cc(=O)n1C(C)c1ccc(C#CC2CC2)c(F)c1 (stereo not drawn); > 75%
Cc1cc(OCc2cncnc2)cc(=O)n1[C@H](C)c1ccc(C#CC2CC2)cc1; > 75%
Cc1cc(OCc2cn(C)nn2)cc(=O)n1[C@H](C)c1ccc(C#CC2CC2)cc1; > 75%
Cc1cc(OCc2ncccn2)cc(=O)n1C(C)c1ccc2cc(C3CC3)ccc2c1 (stereo not drawn); < 25%
CCn1ccnc1COc1cc(C)n([C@H](C)c2ccc(C#CC3CC3)cc2)c(=O)c1; > 75%
Cc1cc(OCc2cocn2)cc(=O)n1[C@H](C)c1ccc(C#CC2CC2)cc1; > 75%
Cc1cc(OCc2nccn2C)cc(=O)n1[C@H](C)c1ccc(C#CC2CC2)cc1; > 75%
Cc1c(C#CC2CC2)cccc1Cn1c(C)cc(OCc2ncccn2)cc1=O; < 25%
Cc1cc(OCc2cncn2C)cc(=O)n1[C@H](C)c1ccc(C#CC2CC2)cc1; > 75%
Cc1ccc(C#CC2CC2)cc1Cn1c(C)cc(OCc2ncccn2)cc1=O; < 25%
Cc1cc(OCc2cnccc2Cl)cc(=O)n1[C@H](C)c1ccc(C#CC2CC2)cc1; > 75%
COc1cc(OCC2COc3ncccc3O2)cc(-c2ccc(-c3ccc(C)nc3)cc2C)n1 (stereo not drawn); 25 to 50%
Cc1cc(OCc2nccs2)cc(=O)n1[C@H](C)c1ccc(C#CC2CC2)cc1; > 75%
Cc1cc(OC[C@H]2COc3ccccc3O2)cc(=O)n1Cc1cccc(C#CC2CC2)c1; 25 to 50%
Cc1cc(OCc2ncccc2F)cc(=O)n1[C@H](C)c1ccc(C#CC2CC2)cc1; > 75%
Cc1cc(OCc2ccncn2)cc(=O)n1[C@H](C)c1ccc(C#CC2CC2)cc1; > 75%
Cc1cc(OCc2ccccn2)cc(=O)n1[C@H](C)c1ccc(C#CC2CC2)cc1; > 75%
Cc1cc(OCc2cncs2)cc(=O)n1[C@H](C)c1ccc(C#CC2CC2)cc1; > 75%
Cc1cc(OCc2cccnn2)cc(=O)n1[C@H](C)c1ccc(C#CC2CC2)cc1; > 75%
